Reference source for all entries: PubChem BioAssay AID2060905

System: 282377-053-R-J1-PDC complex spheroid viability
Test: Anticancer human tumor 282377-053-R-J1-PDC patient-derived colon adenocarcinoma cell line growth inhibition [RAS]
Particulars: second compound 0.3 µM; first compound 0.0316 µM; hits give low values
Assay Endpoint: viability, T/C (%)
Kindly answer with a numeric value in %, unit omitted.

Compound: NC1c2ccccc2OC12CCN(c1cnc3c(N4CCCc5ncccc54)n[nH]c3n1)CC2 (configuration not stated) + CCn1c(-c2cc(N3CCN(C)CC3)cnc2C(C)OC)c2c3cc(ccc31)-c1csc(n1)CC(NC(=O)C1CC1C)C(=O)N1CCCC(N1)C(=O)OCC(C)(C)C2
Assay Endpoint: viability, T/C
Result Value: 126

Then there is this compound:
// query Endpoint output: viability, T/C of CC(Nc1ccc2c(c1)OCCn1cc(N3C(=O)OCC3C(F)F)nc1-2)C(N)=O (configuration not stated) + CCn1c(-c2cc(N3CCN(C)CC3)cnc2C(C)OC)c2c3cc(ccc31)-c1csc(n1)CC(NC(=O)C1CC1C)C(=O)N1CCCC(N1)C(=O)OCC(C)(C)C2 . Value?
// result 106

###

Tested on: 282377-053-R-J1-PDC complex spheroid viability
Test: Anticancer human tumor 282377-053-R-J1-PDC cell line growth inhibition [RAS];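 also: spheroids exposed to agents for seven days before readout; luminescence viability as percent of DMSO vehicle control wells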
Particulars: second compound 0.00949 µM; first compound 0.01 µM; hits give low values
Assay Endpoint: viability, T/C (%)
Kindly answer with a numeric value in %, unit omitted.

Solved cases (3 shown):
Compound: CC(C)n1nc(-c2ccc3oc(N)nc3c2)c2c(N)ncnc21 + CCn1c(-c2cccnc2C(C)OC)c2c3cc(ccc31)N1CCOC(CC(NC(=O)C(C(C)C)N(C)C(=O)C3(F)CCN(C(=O)C#CC(C)(C)N(C)C)CC3)C(=O)N3CCCC(N3)C(=O)OCC(C)(C)C2)C1
Target Or System: 282377-053-R-J1-PDC complex spheroid viability
Assay Endpoint: viability, T/C
Unit Abbrev: %
Result Value: 80
//
Compound: C=CC(=O)Nc1cc(Nc2nccc(-c3cn(C)c4ccccc34)n2)c(OC)cc1N(C)CCN(C)C + CCn1c(-c2cccnc2C(C)OC)c2c3cc(ccc31)N1CCOC(CC(NC(=O)C(C(C)C)N(C)C(=O)C3(F)CCN(C(=O)C#CC(C)(C)N(C)C)CC3)C(=O)N3CCCC(N3)C(=O)OCC(C)(C)C2)C1
Target Or System: 282377-053-R-J1-PDC complex spheroid viability
Assay Endpoint: viability, T/C
Unit Abbrev: %
Result Value: 188
//
Compound: C=CC(=O)Nc1cc(Nc2nccc(-c3cn(C)c4ccccc34)n2)c(OC)cc1N(C)CCN(C)C + CCn1c(-c2cc(N3CCN(C)CC3)cnc2C(C)OC)c2c3cc(ccc31)-c1csc(n1)CC(NC(=O)C1CC1C)C(=O)N1CCCC(N1)C(=O)OCC(C)(C)C2
Target Or System: 282377-053-R-J1-PDC complex spheroid viability
Assay Endpoint: viability, T/C
Unit Abbrev: %
Result Value: 90.8

Then there is this compound:
// query Endpoint output: viability, T/C of CCN1CCN(Cc2ccc(Nc3ncc(F)c(-c4cc(F)c5nc(C)n(C(C)C)c5c4)n3)nc2)CC1 + CCn1c(-c2cccnc2C(C)OC)c2c3cc(ccc31)N1CCOC(CC(NC(=O)C(C(C)C)N(C)C(=O)C3(F)CCN(C(=O)C#CC(C)(C)N(C)C)CC3)C(=O)N3CCCC(N3)C(=O)OCC(C)(C)C2)C1 . Value?
// result 106
